Data credit: ChEMBL document CHEMBL1157539

Tested on: HepG2
experiment.notes: GSK_TCMDC: Percent inhibition of human HepG2 cell line. Test compounds present at 10uM.
Assay type: functional
Values of Inhibition strictly less than 40% map to yes, and values of at least 40% map to no.

Previously resolved entries follow.
| compound | study.target | class.label |
| --- | --- | --- |
| O=C(/C=C/c1ccc(Cl)c(Cl)c1)NCCCCCN1CCC(NC(=O)Nc2ccc(C(F)(F)F)cc2)CC1 | HepG2 | no |
| CCOC(=O)c1ccc(OCCCCCCOc2ccc(Br)cc2)cc1 | HepG2 | yes |
| COc1ccc(CNCc2cccc(-c3cccc(-c4nc5cc(F)ccc5[nH]4)c3)c2)cc1.O=C(O)C(F)(F)F | HepG2 | yes |
| CN(C)CC(O)C(c1ccccc1)c1ccc(Cl)cc1.O=C(O)CCC(=O)O (centres undefined) | HepG2 | yes |
| COc1ccc2nccc([C@@H](O)CN3CCC(NCC4COc5ccccc5O4)CC3)c2c1.O=C(O)C(=O)O (some centres undefined) | HepG2 | yes |

Answer whether the compound Cc1c2c(nn1-c1ccccc1)C(c1ccccc1)N(c1ccccc1)C2=O (centres undefined) has Inhibition strictly less than 40%
no
